method description: Half life in Plasmodium falciparum-infected patient at 320 mg/kg, po
Type: ADME, organism-based
Design: dose 320 mg/kg, route oral
condition parameters: human, in vivo
measure name: half-life (days)
Entry rule: numbers only, all in days.

# input Look up half-life for this molecule: Clc1ccc2c(N3CCN(CCCN4CCN(c5ccnc6cc(Cl)ccc56)CC4)CC3)ccnc2c1
# output 17.8

---

method description: AUC in Plasmodium falciparum-infected patient at 320 mg/kg, po
Type: ADME, organism-based
Parameters: dose 320 mg/kg, route oral
condition parameters: human, plasma
measure name: AUC (ng·h/mL)
I only need the number, in ng·h/mL, no unit after it.

# input # get_value(readout='AUC', item= Clc1ccc2c(N3CCN(CCCN4CCN(c5ccnc6cc(Cl)ccc56)CC4)CC3)ccnc2c1 [PIPERAQUINE] )
# output 44400

---

method description: AUC (0 to infinity) in Plasmodium falciparum-infected patient at 320 mg/kg, po
Type: ADME, organism-based
Parameters: time infinity, dose 320 mg/kg, route oral
condition parameters: human, plasma
measure name: AUC(0-inf) (ng·h/mL)
Hi! Could you send only the number? It should be in ng·h/mL, unit omitted.

# input Endpoint output: AUC(0-inf) of Clc1ccc2c(N3CCN(CCCN4CCN(c5ccnc6cc(Cl)ccc56)CC4)CC3)ccnc2c1 . Value?
# output 56400

---

method description: Tmax in Plasmodium falciparum-infected patient at 40 mg/kg, po
Format: ADME, organism-based
Design: dose 40 mg/kg, route oral
condition parameters: human, in vivo
measure name: Tmax
Answer with the value and then the unit.

# input May I ask what Tmax has been recorded for C[C@H]1[C@@H](O)O[C@@H]2O[C@@]3(C)CC[C@H]4[C@H](C)CC[C@@H]1[C@@]24OO3 [ARTENIMOL] ?
# output 2.8 h

---

method description: Plasma concentration in Plasmodium falciparum-infected patient at 320 mg/kg, po after 28 days
Type: ADME, organism-based
Design: dose 320 mg/kg, route oral
condition parameters: human
measure name: concentration at 672 h (ng/mL)
Enter your answer as a number in ng/mL; do not include the unit.

# input Entry Clc1ccc2c(N3CCN(CCCN4CCN(c5ccnc6cc(Cl)ccc56)CC4)CC3)ccnc2c1 has what concentration at 672 h?
# output 25

---

method description: Tmax in Plasmodium falciparum-infected patient at 320 mg/kg, po
Format: ADME, organism-based
Design: dose 320 mg/kg, route oral
condition parameters: human, in vivo
measure name: Tmax (h)
Answer with a number only, understood to be in h.

# input Bench note: what Tmax did Clc1ccc2c(N3CCN(CCCN4CCN(c5ccnc6cc(Cl)ccc56)CC4)CC3)ccnc2c1 show?
# output 5.7

---

method description: AUC in Plasmodium falciparum-infected patient at 40 mg/kg, po
Type: ADME, organism-based
Design: dose 40 mg/kg, route oral
condition parameters: human, plasma
measure name: AUC (ng·h/mL)
# output: bare number, implied unit ng·h/mL

# input Query: AUC; subject: C[C@H]1[C@@H](O)O[C@@H]2O[C@@]3(C)CC[C@H]4[C@H](C)CC[C@@H]1[C@@]24OO3
# output 1950

---

method description: Cmax in Plasmodium falciparum-infected patient at 40 mg/kg, po
Assay type: ADME, organism-based
Set-up: dose 40 mg/kg, route oral
condition parameters: human, in vivo
measure name: Cmax (ng/mL)
Your answer should be a plain number; it is taken to be in ng/mL.

# input Consider the compound shown here: C[C@H]1[C@@H](O)O[C@@H]2O[C@@]3(C)CC[C@H]4[C@H](C)CC[C@@H]1[C@@]24OO3 What is its recorded Cmax?
# output 698
